system-tested: ScMyo3
assay-procedure: SPOT peptide array binding signal intensity (averaged, normalized) (arbitrary units (background-subtracted, floor 0; scale differs between SH3 domains)); higher = stronger binding of the SH3 domain to the peptide
Please use Condition met whenever SPOT peptide array binding signal intensity is not below 100, and Condition not met whenever it is.

| binder | cat |
| --- | --- |
| ISPPASPPPEFDFSK | Condition met |
| PVLPPPRSPNRPTLS | Condition met |
| KMSRSPPRPPSLKII | Condition met |
| SGVRLPAPPPPPRRG | Condition met |
| QNTPPLPPKPKSPHL | Condition not met |
| NPNRRAPRRPLSTQH | Condition not met |
| HAPPLPPTAPPPPSL | Condition met |
| TTNRGPPPLPPRANV | Condition met |
| GKFIPSRPAPKPPSS | Condition met |
| NSMRPPLLIPAATTK | Condition not met |
| VTHRLRISIPGITGR | Condition not met |
| ERPKRRAPPPVPKKP | Condition met |
| DGNEEKPLLPTRPNK | Condition not met |
| LLGRKRPVMERVVDI | Condition not met |
| LKHGWKPLRPIKLIS | Condition not met |
